# System: NCI-H460
# method-description: NCI tumour cell line growth inhibition, 48 h
The source made the active and inactive calls. Cut-off read from the data, not from the text of the source: active = GI50 up to about 1.1 µM and inactive = higher.

{"columns": ["compound", "GI50"],
 "data": [
  ["COC(C(O)CO)C(O)C(O)C(=O)NNc1ccccc1 (stereo not drawn)", "9.46 µM (inactive)"],
  ["Cn1c(=O)c2c3oc(=O)cc(O)c3c(=O)n3c4ccccc4n(c1=O)c23", "37.2 µM (inactive)"],
  ["O=c1c(-c2ccc(O)cc2)coc2cc(O)cc(O)c12 [GENISTEIN]", "42 µM (inactive)"]
]}

* * *

# System: HOP-92
# method-description: NCI tumour cell line growth inhibition, 48 h
Calls of active or inactive are those of the source. Cut-off read from the data, not from the text of the source: active = GI50 up to about 1.1 µM and inactive = higher.
Possible outcomes: True = active, False = inactive

{"columns": ["molecule", "system-name", "cat"],
 "data": [
  ["COC(=O)C(C(=O)OC)C1CC(=O)c2c(Br)sc(Br)c21 (configuration not stated)", "HOP-92", "False"],
  ["Cc1ccc(N2C=Nn3c(nc4sc5c(c4c3=O)CCCC5)C2)cc1", "HOP-92", "False"],
  ["Cc1ccc(-c2c(N)[n+]([O-])c3ccccc3[n+]2[O-])cc1", "HOP-92", "False"],
  ["CSc1ncnc2c1cnn2CCCCO", "HOP-92", "False"],
  ["Cc1cccc(C)c1N1C(=O)C(=O)C(c2nc3ccccc3s2)/C(=N/NC(=O)NN)C1=O (configuration not stated)", "HOP-92", "False"],
  ["C/C(=N\\Nc1nc2ccccc2[nH]1)c1cccc[n+]1[O-]", "HOP-92", "False"],
  ["COc1ccc(C2C(C#N)=C(S)N(C3OC(CO)C(O)C(O)C3O)C(c3ccccc3)=C2C(C)=O)cc1 (configuration not stated)", "HOP-92", "False"],
  ["COc1ccc(C(=O)/C=C/c2cc(O)c(O)cc2F)c(OC)c1", "HOP-92", "False"],
  ["Cc1ccc(NC(=O)CC2SC(Nc3ccc(Cl)cc3)=NC2=O)cc1C (configuration not stated)", "HOP-92", "False"],
  ["O=C(Cn1cc(I)c(C(=O)NCC(O)CO)n1)NCC(O)CO (configuration not stated)", "HOP-92", "False"],
  ["O=C1Nc2ccccc2C1(O)Cc1ccccn1 (configuration not stated)", "HOP-92", "False"],
  ["Cc1ccc([N+](=O)[O-])cc1S(=O)(=O)Nc1ccc(C2=NN(S(=O)(=O)c3cc([N+](=O)[O-])ccc3C)C(c3cccs3)C2)cc1 (configuration not stated)", "HOP-92", "False"],
  ["N#C/C(N)=N/c1ccccc1", "HOP-92", "False"],
  ["O=C1Nc2ccccc2/C1=C\\c1c(Cl)[nH]c2ccccc12", "HOP-92", "True"],
  ["COc1ccc(-c2c(/C=N/OCC(=O)O)c3sc4ccccc4n3c2/C=N/OCC(=O)O)cc1", "HOP-92", "False"],
  ["CN1N=C2c3ccccc3CC[C@H]2C1c1ccccc1 (some centres not stated)", "HOP-92", "False"],
  ["N=c1oc2ccc3ccccc3c2cc1C(N)=O", "HOP-92", "False"]
]}

* * *

# Test system: SK-MEL-28
# method-description: NCI tumour cell line growth inhibition, 48 h
Active and inactive are the calls of the source. Rule as the data show it: active = GI50 up to about 1.1 µM and inactive = higher.
Entries and their GI50 values follow.
property-label: GI50

{"columns": ["molecule", "measured-result"],
 "data": [
  ["COc1ccc(NC(=O)N(C)CC2(O)CCC(C(C)(C)C)CC2)cc1 (stereo not given)", "> 100 µM (inactive)"],
  ["COc1cccc(C=O)c1C(=O)c1cc(O)ccc1O", "34.1 µM (inactive)"],
  ["O=C1Nc2ccccc2/C1=C\\c1c(Cl)[nH]c2ccccc12", "0.299 µM (active)"],
  ["NC(CCCC(N)P(=O)(O)O)P(=O)(O)O (stereo not given)", "> 100 µM (inactive)"],
  ["CCNC(=O)c1c(O)nc2ccccc2c1O", "> 100 µM (inactive)"],
  ["CCc1c(N=[N+]=[N-])c2ccccc2oc1=O", "> 100 µM (inactive)"],
  ["Nc1ncnc2c1ncn2C(=O)NC12CC3CC(CC(C3)C1)C2", "> 100 µM (inactive)"],
  ["COC(=O)C1=CC2C(=O)OC1C1C(=O)NC(=O)C21 (stereo not given)", "> 100 µM (inactive)"],
  ["O=C(CSc1nnc(Cc2ccccc2)o1)Nc1cccc(Cl)c1", "> 100 µM (inactive)"],
  ["CN(C(=N)c1ccccc1)c1ccccc1", "> 100 µM (inactive)"],
  ["O=S(=O)(O)c1ccc2c(/N=N/c3ccccc3)c(O)ccc2c1", "> 100 µM (inactive)"],
  ["C/C(=N\\NC(=O)c1ccccc1O)c1c(O)cc(C)oc1=O", "> 100 µM (inactive)"],
  ["CCOC(=O)[C@H]1Nc2ccccc2C2c3ccccc3CC21 (stereo not given in full)", "34.2 µM (inactive)"],
  ["CN(CCNC(=O)c1cn(C)c2c1ccc1ccccc12)CCNC(=O)c1cn(C)c2c1ccc1ccccc12", "1.97 µM (inactive)"],
  ["C=C=C[P+](c1ccccc1)(c1ccccc1)c1ccccc1", "21.4 µM (inactive)"],
  ["O=[N+]([O-])c1cccc2nc3ccccc3c(NCCNCCO)c12", "0.047 µM (active)"],
  ["C/C(CC(=O)Nc1ccc(NC(=O)C/C(C)=N\\NC(N)=O)cc1)=N/NC(N)=O", "> 44.4 µM (inactive)"],
  ["CC(C)C(N)=O [ISOBUTYRAMIDE]", "> 5000 µM (inactive)"],
  ["CCN(CC)c1ccc2cc3ccc(N(CC)CC)cc3[o+]c2c1", "2.56 µM (inactive)"],
  ["O=C(c1ccccc1)c1ccc2nc3n(c2c1)C(c1c(Cl)cccc1Cl)SC3 (stereo not given)", "10.4 µM (inactive)"]
]}

Values were extracted from ChEMBL document CHEMBL1201862.
